Can you tell me self-cleavage for the items I'm about to list?
B1: Hairpin Ribozyme (parent)
chain: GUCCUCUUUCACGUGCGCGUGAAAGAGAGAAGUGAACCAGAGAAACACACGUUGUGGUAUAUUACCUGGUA

- Variants of: B1
- measurement-protocol: self-cleavage, relative activity (ratio to wild type); higher = more cleavage; co-transcriptional
Numbers only.

GUCCUAUUUCACGUGCGCGUGAAAGAGAGAAGUGAACCAGAGAAACACACGUUGUAGUAUAUUACCUGGUA [C6A G56A] = 0.117
GUCCUCUUUCACGUGCGCGUGAAAGAGAGAAGUGAACCAGAGAAACACACGUUGUGGUAGAUUGCCUGGUA [U60G A64G] = 0.335
GUCCUCUUUCACGUGCGCGUGAAAGAGAGAAGUGAACCAGAGAACCACACGUUGUGGUAUAUUUCCUGGUA [A45C A64U] = 0.223
GUCCUCUUUCACGUGCGCGAGAAAGAGAGAAGUGAACCAGAGAAACACACGUUCUGGUAUAUUACCUGGUA [U20A G54C] = 0.362
GUCCUCUUUCACGUGCGCGUGAAAGAGAGAAGUGAACCGGAGCAACACACGUUGUGGUAUAUUACCUGGUA [A39G A43C] = 0.137

Give self-cleavage for all variants that follow.
1. GUCCUCUUUCACGUGCGCGUGAAAGAGAGCAGUGAACCAGAGAAACACACGUUAUGGUAUAUUACCUGGUA [A30C G54A]
2. GUCCUCUUUCACGUGCGCGUGAAAGAGAGAAGUGAACCAGAGAAACACACGCUCUGGUAUAUUACCUGGUA [U52C G54C]
3. GUCCUUUUUCACGUGCGCUUGAAAGAGAGAAGUGAACCAGAGAAACACACGUUGUGGUAUAUUACCUGGUA [C6U G19U]

0.107
0.0624
0.715

Dear colleague, could you please provide self-cleavage for the variants listed below?
1. GUCCUCUUUCACGUGUGCGUGAAAGAGAGAAGUGAACCAUAGAAACACACGUUGUGGUAUAUUACCUGGUA [C16U G40U]
2. GUCCUCUUUCACGUGCGCGGGAAAGAGAGAAGGGAACCAGAGAAACACACGUUGUGGUAUAUUACCUGGUA [U20G U33G]
3. GUCCUCUUUCACGUGCGCGUGAUAGAGAGAAGCGAACCAGAGAAACACACGUUGUGGUAUAUUACCUGGUA [A23U U33C]
4. GUCCUUUUUCACGUGCGCGUGAAUGAGAGAAGUGAACCAGAGAAACACACGUUGUGGUAUAUUACCUGGUA [C6U A24U]
5. GUCCUCUUUCACGUGCGCGUAAAAGAGAGAAGUGAACCAGAGAAACACACGUUGUAGUAUAUUACCUGGUA [G21A G56A]
6. GUCCUCUUUCACGUGCGCGUGAAAGAGAGAAGUGAACCAGAGGAACACACGUUGUGGUACAUUACCUGGUA [A43G U60C]

1. 0.146
2. 0.11
3. 0.144
4. 0.781
5. 0.19
6. 0.0979

For every item below, please supply its self-cleavage.
1. GUCCUCUGUCUCGUGCGCGUGAAAGAGAGAAGUGAACCAGAGAAACACACGUUGUGGUAUAUUACCUGGUA [U8G A11U]
2. GUCCUCUUUCACGUGCGCGUGAAAGAGAGAAGUGAACCAGAGAAACACACGUGGGGGUAUAUUACCUGGUA [U53G U55G]
3. GUCCUCUUUCACGUGCGCGUGAAAGAGAGAAAUGAACCAGAGAAACACACGUUGUGGUAAAUUACCUGGUA [G32A U60A]
4. GUCCUCUAUCACGUGCGCGUGAAAGAGAGAAGUGAACCAGAGAAACACCCGUUGUGGUAUAUUACCUGGUA [U8A A49C]
5. GUCCUCUUUCACGUGCGCGUGAAAGGGAGAAGUGCACCAGAGAAACACACGUUGUGGUAUAUUACCUGGUA [A26G A35C]

0.67
0.327
0.191
0.165
0.799
